Reported IC50 values follow for various compounds
Molecular target: Beta-secretase 1 (Homo sapiens)
Sequence (P56817 whole entry): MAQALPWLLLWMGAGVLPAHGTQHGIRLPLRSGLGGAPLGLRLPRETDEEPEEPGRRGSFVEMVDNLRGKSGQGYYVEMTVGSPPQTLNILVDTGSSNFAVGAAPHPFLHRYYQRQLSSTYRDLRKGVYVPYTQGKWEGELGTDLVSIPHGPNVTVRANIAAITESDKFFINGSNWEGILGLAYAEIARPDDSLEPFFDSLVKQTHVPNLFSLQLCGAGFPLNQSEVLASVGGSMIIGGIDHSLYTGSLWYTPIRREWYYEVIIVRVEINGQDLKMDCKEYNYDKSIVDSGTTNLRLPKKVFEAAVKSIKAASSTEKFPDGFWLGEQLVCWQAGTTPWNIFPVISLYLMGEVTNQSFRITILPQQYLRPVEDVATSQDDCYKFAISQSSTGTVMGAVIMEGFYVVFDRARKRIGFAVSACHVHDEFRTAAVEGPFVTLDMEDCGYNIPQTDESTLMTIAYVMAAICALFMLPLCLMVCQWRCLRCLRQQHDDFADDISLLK
Assay: Inhibition of BACE1 by HPLC method
Write the number in nM without appending the unit.

// known answers, use as guide
Compound	Reported value
CCC(C)[C@@]1(NC(C)=O)CCN([C@@H](CCc2ccccc2)C(=O)N[C@@H](Cc2cc(F)cc(F)c2)[C@H](O)[C@H]2C[C@@H](Oc3cccnc3)CN2)C1=O (some centres undefined)	5.9
CCC(C)[C@@]1(NC(C)=O)CCN([C@@H](CCc2ccccc2)C(=O)N[C@@H](Cc2cc(F)cc(F)c2)[C@H](O)[C@H]2C[C@@H](O)CN2)C1=O (some centres undefined)	6.5
CCC[C@@H](O)[C@H]1CCN([C@@H](CCc2ccccc2)C(=O)N[C@@H](Cc2cc(F)cc(F)c2)[C@H](O)CNCc2cccc(OC)c2)C1=O	5.2
CCC(C)[C@@]1(NC(C)=O)CCN([C@@H](CCc2ccccc2)C(=O)N[C@@H](Cc2cc(F)cc(F)c2)[C@H](O)[C@H]2Cc3cccc(OC)c3CN2)C1=O (some centres undefined)	4.2
CCC(C)[C@@]1(NC(C)=O)CCN([C@@H](CCc2ccccc2)C(=O)N[C@@H](Cc2cc(F)cc(F)c2)[C@H](O)[C@H]2Cc3ccccc3CN2)C1=O (some centres undefined)	54

Then there is this compound:
So what does the record say about IC50 for CCCO[C@H]1CN[C@@H]([C@@H](O)[C@H](Cc2cc(F)cc(F)c2)NC(=O)[C@H](CCc2ccccc2)N2CC[C@](NC(C)=O)(C(C)CC)C2=O)C1 (some centres undefined) ?
2.6
